test system: SK-MEL-5 melanoma; experiment: NCI-60 one-dose screen, 48 h; conditions: 10 µM unless noted
The panel holds about 83,000 compounds, 20% with a hit somewhere; the sample as a whole holds those more often. Calls of active or inactive are those of the source. Rule for the calls: active = growth percent below 10; inactive = the rest.
Response enum: yes (1) for active, no (0) for inactive

Known results for compounds:
- COMPOUND: "Cc1cccc2cc(/C=C/C(=O)/C=C/c3ccc(Cl)cc3)c(=O)[nH]c12"
  LABEL VALUE: "no (0)"
- COMPOUND: "O=S(=O)(NCCCNc1cc(-c2cn(-c3ccccc3)nc2-c2cccc(O)c2)ccn1)c1cccc(F)c1"
  LABEL VALUE: "no (0)"
- COMPOUND: "CCCn1c(=S)sc2c(Cl)nc(C)nc21"
  LABEL VALUE: "no (0)"
- COMPOUND: "O=C(CNC(=O)c1cccc2ccccc12)Nc1ccccc1Oc1ccccc1"
  LABEL VALUE: "yes (1)"
- COMPOUND: "Cc1ccc(Cn2c(-c3nonc3N)nc3ccccc32)cc1"
  LABEL VALUE: "no (0)"
- COMPOUND: "COc1ccc(/C(=N\\O)c2cc(OC)c(OC)c(OC)c2)c(OC)c1N"
  LABEL VALUE: "no (0)"
- COMPOUND: "CCCCNC(=O)NS(=O)(=O)c1ccc(N2N=C(c3ccc(C)cc3C)CC2c2ccc(OC)cc2)cc1 (stereo not given)"
  LABEL VALUE: "no (0)"
- COMPOUND: "N#Cc1ncc(-c2ccc(F)c(F)c2F)c(NC2CCCCCC2)n1"
  LABEL VALUE: "no (0)"

Status in this test for O=C(/C=C/c1ccccc1)n1c(-c2ccc(Cl)cc2)nc2ccccc21 ?
yes (1)

Status in this test for O=C(Nc1ccc(Cl)cc1)c1cc(-c2ccc(F)cc2)c2sc(=O)[nH]c2n1 ?
yes (1)

Data origin, for the record: PubChem BioAssay (NCI)
